# Species on record: Rattus norvegicus
# MEASUREMENT DESCRIPTION: Open TG-GATES - Regimen: Daily Repeat
# Assay type: toxicity, organism-based, Sprague-Dawley
# Design: regimen Daily Repeat, gender Male, age 6 weeks
# SETTINGS: in vivo, po, 0 mg/kg, 72 h, tissue Blood, route gavage, dose level Control, time 3 day
Here, each record is paired with measured Fbg data.
Note: unit mg/dL is implicit; provide only the numeric part.

CC(C)OC(=O)C(C)(C)Oc1ccc(C(=O)c2ccc(Cl)cc2)cc1 [FENOFIBRATE]    275

Just so you know, measured Fbg for NNC(=O)c1ccncc1 came out at 229.4

Just so you know, measured Fbg for COC1=CC(=O)C[C@@H](C)[C@]12Oc1c(Cl)c(OC)cc(OC)c1C2=O came out at 209.6

Just so you know, measured Fbg for COc1ccc2[nH]c([S+]([O-])Cc3ncc(C)c(OC)c3C)nc2c1 (stereo not given) came out at 210.6

Just so you know, measured Fbg for CN1C(=O)CN=C(c2ccccc2)c2cc(Cl)ccc21 came out at 235.6

Just so you know, measured Fbg for CN(C)CCCN1c2ccccc2CCc2ccccc21 came out at 278.8

Just so you know, measured Fbg for CN(C)CCN(Cc1cccs1)c1ccccn1 came out at 290.8

Just so you know, measured Fbg for O=C(CCCN1CCC(O)(c2ccc(Cl)cc2)CC1)c1ccc(F)cc1 came out at 223.2

Just so you know, measured Fbg for CCCNC(=O)NS(=O)(=O)c1ccc(Cl)cc1 [CHLORPROPAMIDE] came out at 289.2

Just so you know, measured Fbg for CCOc1ccc(NC(=O)CC(C)O)cc1 (stereo not given) came out at 305.2

* * *

Here, each record is paired with measured Ht data.
# Species: Rattus norvegicus
# MEASUREMENT DESCRIPTION: Open TG-GATES - Regimen: Daily Repeat
# Format: toxicity, organism-based, Sprague-Dawley
# Design: regimen Daily Repeat, gender Male, age 6 weeks
# SETTINGS: in vivo, po, 100 mg/kg, […], tissue Blood, route gavage, dose level Low, time 14 day
Note: unit % is implicit; provide only the numeric part.

The following compounds have reported results that may help.
COC1=CC(=O)C[C@@H](C)[C@]12Oc1c(Cl)c(OC)cc(OC)c1C2=O    42.2
CCOc1ccc(NC(=O)CC(C)O)cc1 (stereo not given)    43.2
COc1ccc2[nH]c([S+]([O-])Cc3ncc(C)c(OC)c3C)nc2c1 (stereo not given)    40.8
CCOC(=O)CCC(=O)O[C@H]1[C@H](O[C@@H]2[C@@H](C)[C@H](O[C@H]3C[C@@](C)(OC)[C@@H](O)[C@H](C)O3)[C@@H](C)C(=O)O[C@H](CC)[C@@](C)(O)[C@H](O)[C@@H](C)C(=O)[C@H](C)C[C@@]2(C)O)O[C@H](C)C[C@@H]1N(C)C [ERYTHROMYCIN ETHYLSUCCINATE]    39.8

Just so you know, measured Ht for NC(N)=Nc1nc(CSCCC(N)=NS(N)(=O)=O)cs1 came out at 41.5

* * *

Here, each record is paired with measured IP data.
# Species on record: Rattus norvegicus
# MEASUREMENT DESCRIPTION: Open TG-GATES - Regimen: Single
# Format: toxicity, organism-based, Sprague-Dawley
# Design: regimen Single, gender Male, age 6 weeks
# SETTINGS: in vivo, po, 100 mg/kg, 6 h, tissue Plasma, route gavage, dose level Low
Note: unit mg/dL is implicit; provide only the numeric part.

The following molecules have reported results that may help.
NC(N)=Nc1nc(CSCCC(N)=NS(N)(=O)=O)cs1    9
COC1=CC(=O)C[C@@H](C)[C@]12Oc1c(Cl)c(OC)cc(OC)c1C2=O    9.7

Just so you know, measured IP for COc1ccc2[nH]c([S+]([O-])Cc3ncc(C)c(OC)c3C)nc2c1 (centres undefined) came out at 9.4

Just so you know, measured IP for CCOC(=O)CCC(=O)O[C@H]1[C@H](O[C@@H]2[C@@H](C)[C@H](O[C@H]3C[C@@](C)(OC)[C@@H](O)[C@H](C)O3)[C@@H](C)C(=O)O[C@H](CC)[C@@](C)(O)[C@H](O)[C@@H](C)C(=O)[C@H](C)C[C@@]2(C)O)O[C@H](C)C[C@@H]1N(C)C [ERYTHROMYCIN ETHYLSUCCINATE] came out at 9.5

* * *

# Organism: Rattus norvegicus
# MEASUREMENT DESCRIPTION: Open TG-GATES - Regimen: Daily Repeat
# Type: toxicity, organism-based, Sprague-Dawley
# Set-up: regimen Daily Repeat, gender Male, age 6 weeks
# SETTINGS: in vivo, po, 0 mg/kg, […], tissue Plasma, route gavage, dose level Control, time 28 day
REPORTED ENDPOINT: LDH (IU/L)
Note: unit IU/L is implicit; provide only the numeric part.

CCOc1ccc(NC(=O)CC(C)O)cc1 (centres undefined) [BUCETIN]    69.6
COC1=CC(=O)C[C@@H](C)[C@]12Oc1c(Cl)c(OC)cc(OC)c1C2=O [GRISEOFULVIN]    155.8
CCCNC(=O)NS(=O)(=O)c1ccc(Cl)cc1 [CHLORPROPAMIDE]    88.4

Just so you know, measured LDH for CC(C)OC(=O)C(C)(C)Oc1ccc(C(=O)c2ccc(Cl)cc2)cc1 [FENOFIBRATE] came out at 90

* * *

# Organism: Rattus norvegicus
# MEASUREMENT DESCRIPTION: Open TG-GATES - Regimen: Daily Repeat
# Format: toxicity, organism-based, Sprague-Dawley
# Parameters: regimen Daily Repeat, gender Male, age 6 weeks
# SETTINGS: in vivo, po, 0 mg/kg, […], tissue Plasma, route gavage, dose level Control, time 28 day
REPORTED ENDPOINT: AST

COC1=CC(=O)C[C@@H](C)[C@]12Oc1c(Cl)c(OC)cc(OC)c1C2=O [GRISEOFULVIN]    56.8 IU/L

Just so you know, measured AST for CN(C)CCN(Cc1cccs1)c1ccccn1 came out at 66.4 IU/L

Just so you know, measured AST for CCOC(=O)CCC(=O)O[C@H]1[C@H](O[C@@H]2[C@@H](C)[C@H](O[C@H]3C[C@@](C)(OC)[C@@H](O)[C@H](C)O3)[C@@H](C)C(=O)O[C@H](CC)[C@@](C)(O)[C@H](O)[C@@H](C)C(=O)[C@H](C)C[C@@]2(C)O)O[C@H](C)C[C@@H]1N(C)C [ERYTHROMYCIN ETHYLSUCCINATE] came out at 71.6 IU/L

Just so you know, measured AST for NC(N)=Nc1nc(CSCCC(N)=NS(N)(=O)=O)cs1 [FAMOTIDINE] came out at 59 IU/L

* * *

Here, each record is paired with measured K data.
# Organism: Rattus norvegicus
# MEASUREMENT DESCRIPTION: Open TG-GATES - Regimen: Daily Repeat
# Assay type: toxicity, organism-based, Sprague-Dawley
# Parameters: regimen Daily Repeat, gender Male, age 6 weeks
# SETTINGS: in vivo, po, 0 mg/kg, […], tissue Plasma, route gavage, dose level Control, time 28 day
Note: unit meq/L is implicit; provide only the numeric part.

The following molecules have reported results that may help.
CN(C)CCCN1c2ccccc2CCc2ccccc21 [IMIPRAMINE]    3.9
CCOC(=O)CCC(=O)O[C@H]1[C@H](O[C@@H]2[C@@H](C)[C@H](O[C@H]3C[C@@](C)(OC)[C@@H](O)[C@H](C)O3)[C@@H](C)C(=O)O[C@H](CC)[C@@](C)(O)[C@H](O)[C@@H](C)C(=O)[C@H](C)C[C@@]2(C)O)O[C@H](C)C[C@@H]1N(C)C [ERYTHROMYCIN ETHYLSUCCINATE]    4.1

Just so you know, measured K for CC1=C(/C=C/C(C)=C/C=C/C(C)=C/CO)C(C)(C)CCC1 [RETINOL] came out at 4

* * *

# Species: Rattus norvegicus
# MEASUREMENT DESCRIPTION: Open TG-GATES - Regimen: Single
# Type: toxicity, organism-based, Sprague-Dawley
# Set-up: regimen Single, gender Male, age 6 weeks
# SETTINGS: in vivo, po, 1000 mg/kg, 9 h, tissue Blood, route gavage, dose level High
REPORTED ENDPOINT: APTT (s)
Note: unit s is implicit; provide only the numeric part.

COC1=CC(=O)C[C@@H](C)[C@]12Oc1c(Cl)c(OC)cc(OC)c1C2=O [GRISEOFULVIN]    17.9
NC(N)=Nc1nc(CSCCC(N)=NS(N)(=O)=O)cs1 [FAMOTIDINE]    16.7
CCOC(=O)CCC(=O)O[C@H]1[C@H](O[C@@H]2[C@@H](C)[C@H](O[C@H]3C[C@@](C)(OC)[C@@H](O)[C@H](C)O3)[C@@H](C)C(=O)O[C@H](CC)[C@@](C)(O)[C@H](O)[C@@H](C)C(=O)[C@H](C)C[C@@]2(C)O)O[C@H](C)C[C@@H]1N(C)C [ERYTHROMYCIN ETHYLSUCCINATE]    23.1

Just so you know, measured APTT for COc1ccc2[nH]c([S+]([O-])Cc3ncc(C)c(OC)c3C)nc2c1 (centres undefined) [OMEPRAZOLE] came out at 18.3
